# Tested on: iCell cardiomyocytes (human iPSC-derived cardiomyocytes)
# methodDescription: Intracellular Ca2+ flux / beating parameters in iCell cardiomyocytes (FLIPR tetra), 90 min or 24 h
# Assay type: cell-based
# details: Homo sapiens, Cardiomyocyte, 24 h, 0.10 µM; 0.00 µM = 100.00; read-out: cm.bpm.24hrs
Where a name gives a salt, the structure may show the parent alone.
quantityMeasured: activity at 0.1 µM (%)
Only the number, expressed in %, is required.

Worked examples, 5 compounds total:
• O=S(=O)(O)Oc1ccc(-c2cccc(Cl)c2)cc1Cl [4-yl PCB 11 sulfate] = 46.8
• Oc1ccccc1-c1ccc(Cl)cc1 = 116
• O=S(=O)(O)Oc1cc(Cl)ccc1-c1ccccc1 [2-yl PCB 3 sulfate] = 53.5
• O=C1C=CC(=O)C(c2ccc(Cl)cc2)=C1 = 100
• COc1ccc(-c2cccc(Cl)c2)cc1Cl = 103

Request body: readout activity at 0.1 µM, system iCell cardiomyocytes (human iPSC-derived cardiomyocytes), query "Oc1ccc(-c2cccc(Cl)c2)cc1Cl" . Return the value.
92.6

Consider next the compound O=S(=O)(O)Oc1ccc(-c2ccc(Cl)cc2)cc1 [4'-yl PCB 3 sulfate] in the same way.
47.7

====

# Tested on: iCell cardiomyocytes (human iPSC-derived cardiomyocytes)
# methodDescription: High-content imaging of cytotoxicity and mitochondrial integrity in iPSC-CMs
# Format: cell-based
# details: Homo sapiens, Cardiomyocyte, 24 h, 10.00 µM; 0.00 µM = 100.00; read-out: cm.mii.24hrs
Where a name gives a salt, the structure may show the parent alone.
Known activity at 10 µM of a selection of compounds
Only the number, expressed in %, is required.

• O=S(=O)(O)Oc1cc(Cl)ccc1-c1ccccc1 [2-yl PCB 3 sulfate] = 85.7
• O=C1C=CC(=O)C(c2ccc(Cl)cc2)=C1 [4-Cl-BQ, 2-(4-Chlorophenyl)benzo-2,5-quinone] = 128
• O=S(=O)(O)Oc1cc(-c2ccccc2)ccc1Cl [3-yl PCB 3 sulfate] = 89.9

Shift focus to the following entry.
Fill in: activity at 10 µM of Oc1cccc(-c2ccc(Cl)cc2)c1 [3'-OH PCB3] is ___
98.8

====

Known activity at 1 µM of a selection of compounds
# System: iCell cardiomyocytes (human iPSC-derived cardiomyocytes)
# methodDescription: Intracellular Ca2+ flux / beating parameters in iCell cardiomyocytes (FLIPR tetra), 90 min or 24 h
# Format: cell-based
# details: Homo sapiens, Cardiomyocyte, 1.5 h, 1.00 µM; 0.00 µM = 100.00; read-out: cm.amp.avg.90min
Counter-ions that a name gives are not always drawn.
Only the number, expressed in %, is required.

* O=C1C=CC(=O)C(c2ccc(Cl)cc2)=C1 | 92.1
* O=S(=O)(O)Oc1cc(-c2ccccc2)ccc1Cl [3-yl PCB 3 sulfate] | 96.9
* Oc1ccc(-c2cccc(Cl)c2)cc1Cl | 103

Shift focus to the following entry.
Fill in: activity at 1 µM of "Oc1cc(Cl)cc(-c2cccc(Cl)c2)c1" is ___
104

====

# Test system: HUVECs
# methodDescription: Tube formation (tubulogenesis) assay in HUVECs, 18 h
# Assay type: cell-based, human
# details: Homo sapiens, HUVEC, 18 h, HUVECs, top concentration 100.00 µM, read-out: huvec.tta.18hr POD
Counter-ions that a name gives are not always drawn.
Known minimal effective concentration of a selection of compounds
Only the number, expressed in µM, is required.

- O=S(=O)(O)Oc1cc(Cl)ccc1-c1ccccc1 [2-yl PCB 3 sulfate]: 100
- Oc1ccccc1-c1ccc(Cl)cc1: 100
- O=C1C=CC(=O)C(c2ccc(Cl)cc2)=C1: 0.65
- O=S(=O)(O)Oc1cccc(-c2ccc(Cl)cc2)c1 [3'-yl PCB 3 sulfate]: 100

Fill in: minimal effective concentration of "Oc1cc(Cl)cc(-c2cccc(Cl)c2)c1" is ___
100
